// data source = ChEMBL document CHEMBL1201862

# Tested on: NCI-H460
# experiment: NCI tumour cell line growth inhibition, 48 h
Activity calls are given as the source filed them. Cut-off read from the data, not from the text of the source: active = GI50 up to about 1.1 µM and inactive = higher.
Give GI50 for every item shown.

The reported GI50 of the molecule C[C@]12OC[C@H](c3ccccc3)N1C(=O)C1[C@H]2CC12SCCS2 (stereo partly drawn) was > 100 µM (inactive)

The reported GI50 of the molecule `C[n+]1ccc(Nc2ccc(NC(=O)c3ccc(Nc4cc[n+](C)c5ccc([N+](=O)[O-])cc45)cc3[N+](=O)[O-])cc2)cc1` was 23.7 µM (inactive)

The reported GI50 of the molecule CC1C=C(OC(=O)c2ccccc2)C(=O)C(n2cc(F)c(=O)[nH]c2=O)O1 (stereo not drawn) was 19.5 µM (inactive)

The reported GI50 of the molecule `Cc1c(-c2ccccc2)c(=O)oc2ccc(Cl)cc12` was 70.5 µM (inactive)

The reported GI50 of the molecule Nc1nc2c(c(=O)[n-]1)[n+](CCO)cn2C1OC(CO)C(O)C1O (stereo not drawn) was > 100 µM (inactive)

The reported GI50 of the molecule C=C[C@]1(C)CCC2=C(CCC3C2(C)CCC[C@]3(C)CO)C1 (stereo partly drawn) was 35.1 µM (inactive)

The reported GI50 of the molecule `COC(=O)[C@@H]1C(=O)O[C@@H](c2cc(OC)c(OC)cc2OC)[C@@H]1C(=O)OC.COC(=O)[C@H]1C(=O)O[C@@H](c2cc(OC)c(OC)cc2OC)[C@@H]1C(=O)OC` was > 100 µM (inactive)

The reported GI50 of the molecule CC(=O)O[C@@H]1C2=C(C)C=C(O2)[C@H]2O[C@]2(C)C[C@H]2C=C(C(=O)O2)[C@H](OC(C)=O)CC1[C@@]1(C)CO1 (stereo partly drawn) was 37 µM (inactive)
